Listed below: pKd values for each entry.
- experimental_target: αvβ3 integrin (Homo sapiens, UniProt P05106+P06756)
- Sequence (P06756 31-889): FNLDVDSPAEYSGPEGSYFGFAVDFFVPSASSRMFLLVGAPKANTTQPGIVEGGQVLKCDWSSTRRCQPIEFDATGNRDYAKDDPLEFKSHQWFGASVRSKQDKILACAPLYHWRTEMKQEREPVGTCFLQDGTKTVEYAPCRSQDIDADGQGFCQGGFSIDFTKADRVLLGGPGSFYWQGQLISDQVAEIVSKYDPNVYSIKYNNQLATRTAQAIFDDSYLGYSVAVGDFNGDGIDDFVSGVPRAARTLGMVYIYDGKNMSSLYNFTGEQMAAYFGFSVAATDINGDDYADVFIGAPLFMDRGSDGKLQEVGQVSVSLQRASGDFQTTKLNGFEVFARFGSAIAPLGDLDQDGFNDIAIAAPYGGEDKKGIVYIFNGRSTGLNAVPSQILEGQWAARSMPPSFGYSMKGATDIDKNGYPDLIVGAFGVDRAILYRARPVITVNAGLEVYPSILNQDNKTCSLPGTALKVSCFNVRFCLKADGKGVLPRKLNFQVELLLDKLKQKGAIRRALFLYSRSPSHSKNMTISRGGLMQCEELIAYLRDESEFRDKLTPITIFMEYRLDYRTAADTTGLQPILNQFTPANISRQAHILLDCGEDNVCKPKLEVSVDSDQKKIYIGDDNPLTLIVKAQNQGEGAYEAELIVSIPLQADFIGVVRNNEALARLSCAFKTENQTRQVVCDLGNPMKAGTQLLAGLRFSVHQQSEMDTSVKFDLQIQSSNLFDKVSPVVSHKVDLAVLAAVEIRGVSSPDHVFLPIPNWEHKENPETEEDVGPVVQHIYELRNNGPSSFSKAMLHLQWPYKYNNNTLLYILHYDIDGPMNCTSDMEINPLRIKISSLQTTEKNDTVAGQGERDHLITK
- Sequence (P06756 891-1048): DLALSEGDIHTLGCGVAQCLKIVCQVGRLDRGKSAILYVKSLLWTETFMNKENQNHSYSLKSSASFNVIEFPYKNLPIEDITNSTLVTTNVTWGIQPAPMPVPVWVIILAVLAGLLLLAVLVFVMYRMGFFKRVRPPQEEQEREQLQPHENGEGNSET
- Sequence (P05106 27-788): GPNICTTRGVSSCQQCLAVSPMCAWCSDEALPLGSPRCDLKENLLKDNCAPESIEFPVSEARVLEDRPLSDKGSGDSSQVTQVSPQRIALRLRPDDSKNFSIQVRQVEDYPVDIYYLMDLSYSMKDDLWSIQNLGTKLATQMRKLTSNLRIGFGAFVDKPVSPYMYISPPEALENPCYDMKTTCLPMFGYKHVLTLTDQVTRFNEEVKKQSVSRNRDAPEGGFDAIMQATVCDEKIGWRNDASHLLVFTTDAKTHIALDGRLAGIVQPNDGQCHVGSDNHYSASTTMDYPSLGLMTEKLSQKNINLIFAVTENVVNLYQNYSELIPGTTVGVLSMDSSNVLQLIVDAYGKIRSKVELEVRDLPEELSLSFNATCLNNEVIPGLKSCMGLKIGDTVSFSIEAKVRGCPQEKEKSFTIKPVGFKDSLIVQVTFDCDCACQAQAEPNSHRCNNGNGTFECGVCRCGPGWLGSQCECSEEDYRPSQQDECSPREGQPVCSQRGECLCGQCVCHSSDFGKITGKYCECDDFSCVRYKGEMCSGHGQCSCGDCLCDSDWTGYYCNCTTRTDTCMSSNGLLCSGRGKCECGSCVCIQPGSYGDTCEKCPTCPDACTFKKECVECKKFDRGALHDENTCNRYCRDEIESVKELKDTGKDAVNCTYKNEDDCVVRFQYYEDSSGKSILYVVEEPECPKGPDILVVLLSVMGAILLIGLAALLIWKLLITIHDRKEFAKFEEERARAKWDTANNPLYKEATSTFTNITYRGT
- assay_protocol: MicroScale Thermophoresis
Square brackets hold non-standard residues; d marks the D form. Peptide text beside a SMILES is read from it.
Scale note: pKd = -log10(concentration in M).

molecule	pKd
CSCC[C@H](NC(=O)[C@H](CC(N)=O)NC(=O)[C@@H](CCCNC(=N)N)NC(=O)[C@H](Cc1c[nH]c2ccccc12)NC(=O)[C@@H](N)CCCNC(=N)N)C(=O)O [RWrNM] (H-RW[dR]NM-OH)	8.06

// moving on: another record for pKd
Using the record for N=C(N)NCCC[C@H](N)C(=O)N[C@@H](Cc1c[nH]c2ccccc12)C(=O)N[C@H](CCCNC(=N)N)C(=O)O [RWr] (H-Arg-Trp-[dR]-OH) , report its pKd.
7.47
